Molecular target: HLA-A*03:01
Test: IEDB peptide-MHC binding, purified MHC/competitive/fluorescence; bounds were set here for any values at or beyond the usual limits of such assays
Details: source organism: Vaccinia virus Copenhagen
result_type: pIC50
Hey, just a heads up that pIC50 is the negative log base 10 of the concentration in molar.

Using the record for IITPIVFYR , report its pIC50.
5.83

###

Target: HLA-B*57:01
Assay: IEDB peptide-MHC binding, purified MHC/competitive/fluorescence; filed as Kd, often an IC50 or EC50 that approximates it; bounds were set here for any values at or beyond the usual limits of such assays
Settings: source organism: Escherichia coli HS
result_type: Kd

Please provide the recorded Kd for ISLWGSLLK , tested on HLA-B*57:01.
≥ 20 µM

###

Target: HLA-B*40:02
Assay: IEDB peptide-MHC binding, purified MHC/competitive/radioactivity; filed as Kd, often an IC50 or EC50 that approximates it; bounds were set here for any values at or beyond the usual limits of such assays
Details: source organism: Mammarenavirus lassaense
result_type: pKd
Hey, just a heads up that pKd is the negative log base 10 of the concentration in molar.

Study these solved cases before continuing.
In [3]: df
Out[3]:
   ordered_residues  result_type  observed_value
0         HDFGIPTPS          pKd            7.12
1        SEAQMSIQLI          pKd            6.03

Next, consider the following sequence.
Using the record for PDYKRPGVS , report its pKd.
4.75

###

Biological target: HLA-A*02:01
Assay: IEDB peptide-MHC binding, purified MHC/competitive/fluorescence; filed as Kd, often an IC50 or EC50 that approximates it; bounds were set here for any values at or beyond the usual limits of such assays
Settings: source organism: Homo sapiens
result_type: Kd

Study these solved cases before continuing.
   ordered_residues    tested_on  result_type  observed_value
0         GTEYRLTLY  HLA-A*02:01           Kd         ≥ 20 µM
1         DLKPQNILL  HLA-A*02:01           Kd            2 µM

Next, consider the following sequence.
Using the record for RTDNGGWAH , report its Kd.
≥ 20 µM

###

Molecular target: HLA-B*46:01
Experiment: IEDB peptide-MHC binding, purified MHC/direct/fluorescence; filed as Kd, often an IC50 or EC50 that approximates it; bounds were set here for any values at or beyond the usual limits of such assays
Conditions: source organism: Cryptosporidium parvum Iowa II
result_type: Kd

Using the record for TVFRNQNRV , report its Kd.
≥ 20 µM

###

Target: HLA-B*58:01
Assay: IEDB peptide-MHC binding, purified MHC/direct/fluorescence; filed as Kd, often an IC50 or EC50 that approximates it; bounds were set here for any values at or beyond the usual limits of such assays
Settings: source organism: Vibrio cholerae
pKd: −log10 of the molar value.
result_type: pKd

In [3]: df
Out[3]:
   ordered_residues    tested_on  result_type  observed_value
0         AADFPGIAR  HLA-B*58:01          pKd          ≤ 4.70

Next, consider the following sequence.
Using the record for KGHLPLLDK , report its pKd.
≤ 4.70

###

Target: HLA-A*69:01
Assay: IEDB peptide-MHC binding, purified MHC/direct/fluorescence; filed as Kd, often an IC50 or EC50 that approximates it; bounds were set here for any values at or beyond the usual limits of such assays
Settings: source organism: Escherichia coli O157:H7
Measured Kd, listed per entry.

Study these solved cases before continuing.
>>> df
   ordered_residues  observed_value
0         DISPTNIPL       0.0148 µM
1         DPRDDLSGM         ≥ 20 µM
2         QMRVRYYGL         ≥ 20 µM
3         VMAASGAPF         ≥ 20 µM

Using the record for KPKLKVATL , report its Kd.
≥ 20 µM
